- Tested on: Hek293T
- experiment_summary: Primary qHTS to identify gynecologic anti-cancer compounds using libraries of approved drugs and bioactive compounds (AID 1345084); also: nearly all actives have a fitted effect of over 55% in size
- condition_notes: Gynecologic cancer cell panel viability, ATPlite luminescence, 48 h, control line for the selectivity index; series mostly up to 57.5 µM
Results filed as inconclusive are left out. Active and inactive are the calls of the source. Calls follow the shape of the dose curve; as a rule, active = well fitted cell-killing curve with a large enough effect; inconclusive = small, poorly fitted or top-dose-only effect, or effect the other way; inactive = flat fitted curve, though single readings scatter.
Possible outcomes: label 1 for active, label 0 for inactive

compound	cat
N#Cc1ccc2[nH]cc(CCCCN3CCN(c4ccc5oc(C(N)=O)cc5c4)CC3)c2c1	label 0
C[C@]12C=C[C@@]3(CCC4[C@](C)(CO)CCC[C@@]4(C)C3CC1)C2 (stereo partly drawn)	label 0
COc1ccc(CC2NCCc3c2[nH]c2ccc(C)cc32)cc1OC (stereo not drawn)	label 0
CC1CC[C@]2(C(=O)O)CC[C@]3(C(=O)O)C(=CCC4[C@@]5(C)CC[C@H](OC6OC(C)C(O)C(OC7OC(CO)C(O)C(O)C7O)C6O)C(C)(C)C5CC[C@]43C)C2C1C (stereo partly drawn)	label 0
COc1cc(O)c2c(c1)C1=CC(O)C(O)CC1(C)OC2=O (stereo not drawn)	label 0
O=C(/C=C/c1ccc(O)cc1)N[C@@H](Cc1ccc(O)cc1)C(=O)O	label 0
CC(=O)NCC(=O)N1C2CCC1c1cc(Nc3ncc(C(F)(F)F)c(NC4CCC4)n3)ccc12 (stereo not drawn)	label 1
CC1(C)C[C@H](O)C[C@@]2(C)OC(=O)C=C12	label 0
C=CC1(C)CC(OC(=O)/C(C)=C\COC(C)=O)C(C(=C)C(=O)O)C(O)C1C(=C)CO (stereo not drawn)	label 0
CC1OC(OC2CCC3(C)C(CCC4(C)C3CC=C3C5CC(C)(C)CCC5(C(=O)OC5OC(CO)C(O)C(O)C5O)CCC34C(=O)O)C2(C)C)C(O)C(O)C1O (stereo not drawn)	label 0
COc1ccc(-c2nc(-c3ccc(-c4cccc(Cl)c4)o3)[nH]c2-c2ccc(OC)cc2)cc1	label 0
CC(=O)N1CCN(Cc2ccc([C@H](C)Nc3nccc(N4C(=O)OC[C@@H]4C(C)C)n3)cc2)CC1	label 0
O=C(c1ccc2nccnc2c1)N1CCCCC1	label 0
CC1(C)CCC[C@@]2(C)C1[C@H](OC(=O)/C=C/C=C/C(=O)O)C=C1COC(=O)[C@@]12O (stereo partly drawn)	label 0
CN1CCN(c2ccc(C(=O)Nc3n[nH]c4ccc(Cc5cc(F)cc(F)c5)cc34)c(NC3CCOCC3)c2)CC1	label 0
COc1cc(Nc2nc3c(s2)CCCC3c2ccc(F)cc2)ccc1-n1cnc(C)c1 (stereo not drawn)	label 0
O=C(O)[C@@H]1C[C@H]2C[C@@H](CCc3nn[nH]n3)CC[C@H]2CN1	label 0
CC1=CC(=O)CC(C)(C)C1/C=C/C(C)O[C@@H]1O[C@H](CO)[C@@H](O)[C@H](O)[C@H]1O[C@@H]1OC[C@](O)(CO)[C@H]1O (stereo partly drawn)	label 0

----------
- system_name: Cytochrome P450 2C9 (Homo sapiens)
- experiment_summary: Cytochrome P450 family 2 subfamily C member 9 (CYP2C9) small molecule antagonists: luciferase biochemical (cell-free) qHTS assay (AID 1645842); also: nearly all actives have a fitted effect of over 55% in size
- condition_notes: P450-Glo CYP2C9 enzyme assay, luciferin luminescence; series mostly up to 57.4 µM
Inconclusive results are not listed. Active and inactive are the calls of the source. Calls follow the shape of the dose curve; as a rule, active = well fitted inhibition curve with a large enough effect in the repeat runs; inconclusive = weak or mixed curves; inactive = no such curve, though single readings can be large or run the other way.
Possible outcomes: active, inactive

In [3]: df
Out[3]:
                                    compound       cat
 0  CC(C)(C)Nc1nc2cc(Cl)c(Cl)cc2nc1S(C)(=O)=O    active
 1  Cc1c(C(=O)N2CCOc3ccc(-c4ccc(N)nc4)cc3C2)ccc(S(C)(=O)=O)c1F  inactive
 2  CC(C)(C(=O)NCC(F)(F)C(F)(F)F)C(=O)NC1C(=O)Nc2ccccc2-c2ccccc21 (stereo not given)    active
 3  CCC(Nc1ncnc2nc[nH]c12)c1nc2cccc(F)c2c(=O)n1-c1ccccc1 (stereo not given)    active
 4     O=C(Nc1nc2ccccc2n1CCc1ccccc1)c1ccccc1    active
 5  O=S(=O)(c1ccccc1)c1cnc2c(N3CCNCC3)cccc2c1    active
 6  CNC(=O)c1cc(Oc2ccc3nc(N[C@@H]4CCCC[C@H]4O)sc3c2)ccn1    active
 7  CC(C)(C)NC(=O)[C@@H](c1cccnc1)N(C(=O)c1ccco1)c1ccc(C(C)(C)C)cc1    active
 8              O=C(Nc1ccc(Cl)cc1F)c1ccccc1O    active
 9  COc1ncc2cc(C(=O)Nc3cc(C(=O)NCc4cccc(Cl)c4)ccc3Cl)c(=O)[nH]c2n1    active
10  O=C(O)c1ccccc1NC(=O)N1CCC(c2ccccc2C(F)(F)F)CC1    active
11           c1cc(OCCCN2CCCCC2)ccc1CN1CCCCC1  inactive
12  COc1cc(Nc2nc3c(s2)CCCC3c2ccc(F)cc2)ccc1-n1cnc(C)c1 (stereo not given)    active
13  Cc1cc(C(N)=O)ccc1-n1c(CCC(=O)O)ccc1-c1ccc(-n2ccnc2)cc1    active
14  CCCCc1ccc(C(=O)Nc2cc(-c3ccc(Cl)cc3)nn2-c2ccc(Cl)cc2)cc1  inactive
15  CC[C@H](CO)Nc1nc(NCc2ccc(-c3ccccn3)cc2)c2ncn(C(C)C)c2n1    active
16  CC(NC(=O)C(O)C(C)C)C(=O)NC1C(=O)N(C)CCc2ccccc21 (stereo not given)  inactive
17  O=C(c1cn(Cc2cncn2Cc2ccc(Br)cc2)cc1-c1cccc2ccccc12)N1CCOCC1    active
18  COc1ccc(-c2cnc(-c3cccc4c3-c3ccccc3C4=O)o2)cc1    active
19  CNC(=O)c1ccccc1Nc1nc(Nc2ccc(N3CCNCC3)cc2)ncc1Cl    active
20  COc1ncc(Nc2ncc([C@H](C)N3CCN(S(C)(=O)=O)CC3)cc2-c2nc(C)nc(N)n2)cc1F    active
21  Cc1cc(C)c(Nc2ccnc(Nc3ccc(C#N)cc3)n2)c(C)c1    active
22  CC(C)(F)C[C@@H](N[C@@H](c1ccc(-c2ccc(S(C)(=O)=O)cc2)cc1)C(F)(F)F)C(=O)NC1(C#N)CC1    active
23  CCN(CC)CCN(Cc1ccc(-c2ccc(C(F)(F)F)cc2)cc1)C(=O)Cn1c(SCc2ccc(F)cc2)nc(=O)c2c1CCC2    active
24      CCCNc1ccc2ncc(-c3ccc4[nH]ncc4c3)n2n1  inactive
25  Cc1nc(NC(=O)N2CCCC2C(N)=O)sc1-c1csc(C(C)(C)C)n1 (stereo not given)  inactive
26  CC(C)c1nnc(-c2ccc(-c3ccccc3)nc2)n1-c1cccc2nonc12    active
27            Cc1ccc(C(=O)Nc2noc3ccccc23)cc1    active
28  CC(C)(C)c1ccc(S(=O)(=O)NCc2ccc(C(=O)Nc3cccnc3)cc2)cc1    active
29  CC1(C)CC(=O)C2=C(C1)NC(=S)NC2c1cccc(O)c1 (stereo not given)    active
30  Cc1cccc(C)c1OCc1cc(C(=O)N2CCC(c3ccncc3)CC2)no1    active
31  COc1ccc(-c2ccc3c(N4CCOCC4)nc(N4CC(C)OC(C)C4)nc3n2)cc1CO (stereo not given)    active
32  Cc1cc(Nc2ncc3cc(-c4c(Cl)cccc4Cl)c(=O)n(C)c3n2)ccc1F    active
33  CCc1cnn2c(NCc3ccc[n+]([O-])c3)cc(N3CCCCC3CCO)nc12 (stereo not given)    active
34  Cc1cc(Nc2ccc(NC(=O)c3ccc(Nc4ccnc5ccccc45)cc3)cc2)nc(N)n1  inactive
35  NC(=O)C(CCC(F)(F)F)N(Cc1ccc(-c2ncon2)cc1F)S(=O)(=O)c1ccc(Cl)cc1 (stereo not given)    active
36  OC1CCC(Nc2ncc3nc(Nc4c(F)cc(F)cc4F)n([C@H]4CCOC4)c3n2)CC1 (stereo not given in full)  inactive
37    Cc1ccc(C)c(OCCn2cc(C(=O)O)c3ccccc32)c1    active
38  Cc1noc(=O)c2ccc(NC(=O)C(O)(CC(C)(C)c3cccc4c3OCC4)C(F)(F)F)cc12 (stereo not given)  inactive
39  CC(C)(C)c1cc(Br)cc([C@H](CC(=O)O)NC(=O)CNC(=O)c2cc(O)cc(NC3=NCC(O)CN3)c2)c1 (stereo not given in full)  inactive

----------
- Tested on: CASKI
- experiment_summary: Primary qHTS to identify gynecologic anti-cancer compounds using libraries of approved drugs and bioactive compounds (AID 1345084); also: nearly all actives have a fitted effect of over 55% in size
- condition_notes: Gynecologic cancer cell panel viability, ATPlite luminescence, 48 h; series mostly up to 57.5 µM
Inconclusive results are not listed. Calls of active or inactive are those of the source. Calls come from the whole dose curve; as a rule, active = well fitted cell-killing curve with a large enough effect; inconclusive = small, poorly fitted or top-dose-only effect, or effect the other way; inactive = flat fitted curve, though single readings scatter. Where a SMILES comes first, the peptide text is derived from it. [ ]: non-standard residue; d: D form. dPhe(4-Cl) = N[C@H](Cc1ccc(Cl)cc1)C(=O)O; d2Nal = N[C@H](Cc1ccc2ccccc2c1)C(=O)O; dCit = NC(=O)NCCC[C@@H](N)C(=O)O; d3Pal = N[C@H](Cc1cccnc1)C(=O)O
Possible outcomes: yes (active), no (inactive)

molecule	system_name	cat
CC(=O)c1ccc(O[C@@H]2O[C@H](CO)[C@@H](O)[C@H](O)[C@H]2O)cc1	CASKI	no
Cn1cncc1C(N)(c1ccc(Cl)cc1)c1ccc2c(c1)c(-c1cccc(Cl)c1)cc(=O)n2C (configuration not stated)	CASKI	no
CC(C)CCC[C@@H](C)[C@H]1CC[C@H]2[C@@H]3CC(=O)[C@H]4C[C@@H](O)CC[C@]4(C)[C@H]3CC[C@]12C	CASKI	no
CC1(C)C2CC=C(COC3OC(COC4OCC(O)(CO)C4O)C(O)C(O)C3O)C1C2 (configuration not stated)	CASKI	no
Nc1ncnc2c1ncn2CCNCCCCCO	CASKI	no
COc1cccc2cc3c(c(O[C@@H]4O[C@H](CO[C@@H]5O[C@H](CO)[C@@H](O)[C@H](O)[C@H]5O)[C@@H](O)[C@H](O)[C@H]4O)c12)C(C)OC3=O (some centres not stated)	CASKI	no
CCc1c(C)nc2c(-c3cnn(-c4cc(CO)ccn4)c3)c[nH]n2c1=O	CASKI	no
Cc1cc(Nc2ccc(NC(=O)c3ccc(Nc4ccnc5ccccc45)cc3)cc2)nc(N)n1	CASKI	yes
CC(NC(=O)CCc1nc2ccccc2c(=O)[nH]1)c1ccccc1 (configuration not stated)	CASKI	no
C[C@H]1C(=O)N2c3ccccc3[C@@]3(O)C[C@@H]4C(=O)N[C@](C)(c5nc6ccccc6c(=O)n54)N1[C@@H]23	CASKI	no
Cc1cc(C(N)=O)ccc1-n1c(CCC(=O)O)ccc1-c1ccc(-n2ccnc2)cc1	CASKI	no
CC(=O)N[C@H](Cc1ccc2ccccc2c1)C(=O)N[C@H](Cc1ccc(Cl)cc1)C(=O)N[C@H](Cc1cccnc1)C(=O)N[C@@H](CO)C(=O)N[C@@H](Cc1ccc(O)cc1)C(=O)N[C@H](CCCNC(N)=O)C(=O)N[C@@H](CC(C)C)C(=O)N[C@@H](CCCN=C(N)N)C(=O)N1CCC[C@H]1C(=O)N[C@H](C)C(N)=O (Ac-[d2Nal][dPhe(4-Cl)][d3Pal]SY[dCit]LRP[dA]-NH2)	CASKI	no
CC1(C)CCCC2(C)C1CC=C1C(=O)OC(O)C12O (configuration not stated)	CASKI	no
COC1/C=C/C(C)(O)C(SCC(N)C(=O)O)CC(=O)OC(C)C(C)CC/C=C/1C (configuration not stated)	CASKI	no
CC[C@H]1OC(=O)[C@](C)(F)C(=O)[C@H](C)[C@@H](O[C@@H]2O[C@H](C)C[C@H](N(C)C)[C@H]2O)[C@](C)(OC)C[C@@H](C)C(=O)[C@@H](C)[C@H]2N(CCCCn3cc(-c4cccc(N)c4)nn3)C(=O)O[C@]12C	CASKI	no
COc1cc(N)c(Cl)cc1C(=O)NC[C@@H]1CCN2CCC[C@@H]12	CASKI	no
OCCc1ccc(O[C@@H]2O[C@H](CO)[C@@H](O)[C@H](O)[C@H]2O)cc1	CASKI	no
COC(=O)CC1CC(c2ccc(O)cc2)=NO1 (configuration not stated)	CASKI	no
C[C@H](O)[C@H](O)/C=C/c1cccc(O)c1CO	CASKI	no
CC1CC[C@]2(C(=O)O)CC[C@]3(C(=O)O)C(=CCC4[C@@]5(C)CC[C@H](OC6OC(C)C(O)C(OC7OC(CO)C(O)C(O)C7O)C6O)C(C)(C)C5CC[C@]43C)C2C1C (some centres not stated)	CASKI	no
C=C[C@H]1C(O[C@@H]2O[C@H](CO)[C@@H](O)[C@H](O)[C@H]2O)OC=C2C(=O)N3CCc4c([nH]c5ccccc45)C3CC21 (some centres not stated)	CASKI	no
CC(C)(O)C1CCC(C)(C2CCC3(C)C4CCC5C(C)(C(=O)OC6OC(CO)C(O)C(O)C6O)C(O)CC(O)C56CC46CCC23C)O1 (configuration not stated)	CASKI	no
COc1cc2occc2c(O[C@@H]2O[C@H](CO)[C@@H](O)[C@H](O)[C@H]2O)c1CCC(=O)O	CASKI	no
C[C@@H]1CN(Cc2ccccc2)C[C@H]1c1nc2c(cnn2C2CCOCC2)c(=O)[nH]1	CASKI	no
CC(=O)OC1C[C@@]2(C)[C@@H](CC[C@@H](C)[C@]23Cc2c(O)cc4c(c2O3)CNC4=O)C(C)(C)[C@@H]1O (some centres not stated)	CASKI	no
COC(=O)C1=CO[C@@H](O[C@@H]2O[C@H](CO)[C@@H](O)[C@H](O)[C@H]2O)C2C1C(=O)C[C@H]2C (some centres not stated)	CASKI	no
CC(C)(C)OC(=O)N1CCC(OCc2nc(-c3ccncc3)no2)CC1	CASKI	no
OC[C@H]1O[C@@H](Oc2ccccc2)[C@H](O)[C@@H](O)[C@@H]1O	CASKI	no
O=C1OCC(c2ccccc2)=C1Cc1ccccc1	CASKI	no
CC(=O)O[C@H]1C[C@@]2(C)[C@@H](CC[C@H]3[C@@]4(C)C=CC(=O)[C@@H](C)[C@@H]4[C@H](O)C(=O)[C@@]32C)/C1=C(/CCC=C(C)C)C(=O)O	CASKI	no
COC(=O)C1=COC(OC2OC(CO)C(O)C(O)C2O)C2C1C=CC2(O)CO (configuration not stated)	CASKI	no
C=C1CC23CC1CCC2C12OC(=O)C(C)(CCC1O)C2C3C(=O)O (configuration not stated)	CASKI	no

Origin of the recorded values: PubChem BioAssay (NCATS)
